Test system: SK-MEL-5 melanoma
Assay name: NCI-60 one-dose screen, 48 h
Measurement setup: 10 µM unless noted
Method: Growth inhibition of the SK-MEL-5 human tumor cell line is measured as a screen for anti-cancer activity. Cells are grown in 96 well plates and exposed to the test compound for 48 hours. Compounds are tested at a single concentration, which is 10^-5 M for most compounds. The reported endpoint is percent growth (GI% or GIPRCNT), where numbers from 0 - 100% represent growth inhibition, and numbers from -100% - 0 represent cell death. For example, a value of 40 represents 60% growth inhibition. […]
This is part of a sample that, as a whole, favours compounds with a hit. Of some 83,000 tested, about 20% had one in any assay. The source made the active and inactive calls. The calls were made as follows: active = growth percent below 10; inactive = the rest.
Select the matching outcome among active, inactive

What call does the record list for `CC[C@H](C)[C@H](NC(=O)[C@H]1CCCCN1C)C(=O)N(C)[C@H](C[C@@H](OC(C)=O)c1nc(C(=O)N[C@@H](Cc2ccccc2)C[C@H](C)C(=O)O)cs1)C(C)C` ?
active

What call does the record list for `COc1ccc(CN)cc1OC` ?
inactive

What call does the record list for CC(=O)OC1CC2(O)C(CCC3(C)C(c4ccc(=O)oc4)CCC32O)C2(C)CCC(OC3OC(CO)C(O)C(O)C3O)C=C12 (stereo not given) ?
active

What call does the record list for `COC[C@H]1OC(=O)c2coc3c2[C@@]1(C)C1=C(C3=O)[C@@H]2CCC(=O)[C@@]2(C)C[C@H]1OC(C)=O` ?
active

What call does the record list for `O=C(O)c1cc([N+](=O)[O-])cc([N+](=O)[O-])c1` ?
inactive

What call does the record list for `CC[C@@H](C)C(=O)O[C@H]1[C@H](O)[C@H]2[C@@H](CN3C[C@@H](C)CC[C@H]3[C@@]2(C)O)[C@@H]2C[C@]34O[C@]5(O)[C@@H](OC(=O)[C@@](C)(O)CC)CC[C@@]3(C)[C@@H]5[C@@H](OC(C)=O)[C@@H](OC(C)=O)[C@H]4[C@@]21O` ?
inactive

What call does the record list for NC1CN2CCC1CC2 (stereo not given) ?
inactive

What call does the record list for `CC(C)COC(=O)Cc1ccccc1` ?
inactive

What call does the record list for CC[PH+](CC)CC.O=COC1OC([S-])C(OC=O)C(OC=O)C1OC=O.[Au+] (stereo not given) ?
active

What call does the record list for `COc1cc(-c2ccc(N)c(OC)c2)ccc1N` ?
inactive
